System: inducible nitric oxide synthase (iNOS)
Assay: iNOS suppression / NO assay in LPS-stimulated macrophages or RAW264.7 cells (Griess reaction)
Format: cell-based, mouse
Conditions: Mus musculus, RAW264.7; 500 nM; Control 100; lower numbers indicate higher efficacy; read-out: NO Assay
Experimental endpoint: activity at 0.5 µM (%)
Give a bare numeral; the unit % is implied.

q: Look up activity at 0.5 µM for this compound: CC(C)CN(c1cc(C(C)(C)C)cc(C(C)(C)C)c1)c1ccc(C(=O)O)cn1
a: 11.5

q: Look up activity at 0.5 µM for this compound: CCCN(c1cc(C(C)(C)C)cc(C(C)(C)C)c1)c1ccc(C(=O)O)cn1
a: 32

q: Look up activity at 0.5 µM for this compound: C=C(c1ccc(C(=O)O)cc1)c1cc2c(cc1C)C(C)(C)CCC2(C)C
a: 32.4

q: Look up activity at 0.5 µM for this compound: CCCCN(c1cc(C(C)(C)C)cc(C(C)(C)C)c1)c1ccc(C(=O)O)cn1
a: 9.4
